Reference source for all entries: patent US11884647B2

System: tumor endothelial cells (LL/2 lung cancer tumor)
Test name: Lung LL2 ex vivo model of tumor angiogenesis
Assay type: cell-based, mouse
Stated conditions: Mus musculus, Endothelial cell, 48 h, read-out: Cell death
Kindly supply the reported cytotoxicity at 40 µM values for the records listed here.
Answer by giving the amount and then stating its unit.

[[record]]
molecule = "CCCCOc1ccc(S(=O)(=O)c2cnc3ccc(C(=O)OCC)cc3c2N2CCC(N3CCOCC3)CC2)cc1 [compound 212]"
measured_result = "50%"

[[record]]
molecule = "CCCCOc1ccc(S(=O)(=O)c2cnc3ccc([S+](C)[O-])cc3c2N2CCC(N3CCN(c4ccc(F)cc4)CC3)CC2)cc1 (stereo not drawn) [compound 239]"
measured_result = "40%"

[[record]]
molecule = "CCOC(=O)c1ccc2ncc(S(=O)(=O)c3ccc(OC)cc3)c(N3CCC(N4CCC(CO)CC4)CC3)c2c1 [compound 175]"
measured_result = "30%"


Dear reader, for each entry below, please note its cytotoxicity at 40 µM.
1. COc1ccc(S(=O)(=O)c2cnc3cc(OC)c(OC)cc3c2N2CCCN(CC3(O)CCCC3)CC2)cc1 [compound 325]
2. CCCCOc1ccc(S(=O)(=O)c2cnc3ccc([S+](C)[O-])cc3c2N2CCCN(C)CC2)cc1 (stereo not drawn) [compound 163]
3. COc1ccc(S(=O)(=O)c2cnc3cc(OC)c(OC)cc3c2N2CCC(O)(c3ccccc3)CC2)cc1 [compound 308]
4. O=[N+]([O-])c1ccc(S(=O)(=O)c2cnc3ccc(OC(F)(F)F)cc3c2N2CCC(O)CC2)cc1 [compound 61]
5. CCc1ccc(S(=O)(=O)c2cnc3ccc(CC#N)cc3c2N2CCC(N3CCCCC3)CC2)cc1 [compound 55]
6. CCCCOc1ccc(S(=O)(=O)c2cnc3ccc(SC)cc3c2N2CCCN(C)CC2)cc1 [compound 160]
7. CCCCOc1ccc(S(=O)(=O)c2cnc3ccc(SC)cc3c2N2CCC(N3CCC(O)CC3)CC2)cc1 [compound 162]

Ans.
1: 30%; 2: 95%; 3: 20%; 4: 50%; 5: 70%; 6: 100%; 7: 70%

* * *

System: tumor endothelial cells (LL/2 lung cancer tumor)
Test name: Lung LL2 ex vivo model of tumor angiogenesis
Format: cell-based, mouse
Stated conditions: Mus musculus, Endothelial cell, 48 h, read-out: Cell death
Note to self: cytotoxicity at 40 µM under 40% means Fulfilled, ties and anything higher get Not fulfilled.

[[record]]
compound = "CCc1ccc(S(=O)(=O)c2cnc3ccc(C(=O)O)cc3c2N2CCCN(C)CC2)cc1 [compound 66]"
measured_target = "tumor endothelial cells (LL/2 lung cancer tumor)"
classification = "Fulfilled"


Lab note: next compound to report on.
Qu. Please indicate whether the reported cytotoxicity at 40 µM of CCc1ccc(S(=O)(=O)c2cnc3ccc(OC(F)(F)F)cc3c2N2CCC3(CC2)OCCO3)cc1 [compound 52] is strictly below 40%.
Ans. Not fulfilled

* * *

Test system: tumor endothelial cells (LL/2 lung cancer tumor)
Test name: Lung LL2 ex vivo model of tumor angiogenesis
Type: cell-based, mouse
Stated conditions: Mus musculus, Endothelial cell, 48 h, read-out: Cell death
Measurement type: cytotoxicity at 40 µM (%)
One number for each entry, in %.

Study these solved cases before continuing.
[[record]]
molecule = "COc1ccc(C2CCN(c3c(S(=O)(=O)c4ccc(OC)cc4)cnc4cc(OC)c(OC)cc34)CC2)cc1"
measurement_type = "cytotoxicity at 40 µM"
unit_string = "%"
measured_result = 30

[[record]]
molecule = "COc1ccc(S(=O)(=O)c2cnc3ccc(SC)cc3c2N2CCCN(C)CC2)cc1OC"
measurement_type = "cytotoxicity at 40 µM"
unit_string = "%"
measured_result = 30

[[record]]
molecule = "COc1ccc(N2CCN(c3c(S(=O)(=O)c4ccc(OC)cc4)cnc4cc(OC)c(OC)cc34)CC2=O)cc1"
measurement_type = "cytotoxicity at 40 µM"
unit_string = "%"
measured_result = 30

[[record]]
molecule = "CNC(=O)c1ccc(C2CCN(c3c(S(=O)(=O)c4ccc(OC)cc4)cnc4cc(OC)c(OC)cc34)CC2)cc1"
measurement_type = "cytotoxicity at 40 µM"
unit_string = "%"
measured_result = 10

[[record]]
molecule = "COc1ccc(S(=O)(=O)c2cnc3ccc(OC(F)(F)F)cc3c2N2CCC(O)CC2)cc1"
measurement_type = "cytotoxicity at 40 µM"
unit_string = "%"
measured_result = 50


Report cytotoxicity at 40 µM for each item below.
1. COc1ccc(S(=O)(=O)c2cnc3ccc(OC(F)(F)F)cc3c2NCCO)cc1OC
2. CCN(CC)CCCN1CCN(c2c(S(=O)(=O)c3ccc(OC)cc3)cnc3cc(OC)c(OC)cc23)CC1
3. COc1ccc(S(=O)(=O)c2cnc3ccc(SC)cc3c2N2CCC(N3CCCCC3)CC2)cc1OC
4. CCc1ccc(S(=O)(=O)c2cnc3ccc([N+](=O)[O-])cc3c2N2CCC(O)CC2)cc1
5. COc1ccc(S(=O)(=O)c2cnc3ccc(SC)cc3c2NN2CCN(C)CC2)cc1
6. CCc1ccc(S(=O)(=O)c2cnc3ccc(OC(F)(F)F)cc3c2N2CCC(CO)CC2)cc1

Ans.
[10, 70, 50, 80, 10, 60]

For each of the molecules below, note its cytotoxicity at 40 µM.
1. CCOC(=O)c1ccc(N2CCN(c3c(S(=O)(=O)c4ccc(OC)cc4)cnc4cc(OC)c(OC)cc34)CC2)cc1
2. COc1ccc(S(=O)(=O)c2cnc3cc(OC)c(OC)cc3c2N2CCCN(C3COC3)CC2)cc1
3. COc1ccc(S(=O)(=O)c2cnc3ccc(OC(F)(F)F)cc3c2N2CCC(N3CCCCC3)CC2)cc1
4. CCCCCCCOc1ccc(S(=O)(=O)c2cnc3ccc(SC)cc3c2N2CCCN(C)CC2)cc1
5. CCc1ccc(S(=O)(=O)c2cnc3ccc([N+](=O)[O-])cc3c2N2CCC(N3CCCCC3)CC2)cc1
6. CCCCOc1ccc(S(=O)(=O)c2cnc3ccc(C(=O)OCC)cc3c2N2CCC(N3CCSCC3)CC2)cc1
7. CCCCOc1ccc(S(=O)(=O)c2cnc3ccc(C(=O)OCC)cc3c2N2CCC(N3CCN(C)CC3)CC2)cc1
8. COc1ccc(S(=O)(=O)c2cnc3ccc(C(=O)N(C)C)cc3c2N2CCC(N3CCCCC3)CC2)cc1

Ans.
1. 30
2. 30
3. 100
4. 100
5. 80
6. 30
7. 100
8. 10

I need cytotoxicity at 40 µM for every entry listed below, if you could help.
1. CCCCOc1ccc(S(=O)(=O)c2cnc3ccc([S+](C)[O-])cc3c2N2CCC(N3CCC(CO)CC3)CC2)cc1 (stereo not drawn)
2. COc1ccc(S(=O)(=O)c2cnc3cc(OC)c(OC)cc3c2N2C[C@@H]3C[C@H]2CN3C)cc1
3. CCCCOc1ccc(S(=O)(=O)c2cnc3ccc(C(=O)OCC)cc3c2N2CCC(N3CCCC(O)C3)CC2)cc1 (stereo not drawn)
4. CCN(CC)c1c(S(=O)(=O)c2ccc(OC)c(OC)c2)cnc2ccc(OC(F)(F)F)cc12
5. CCCCOc1ccc(S(=O)(=O)c2cnc3ccc(SC)cc3c2N2CCC(N3CCOCC3)CC2)cc1

Ans.
1. 30
2. 40
3. 100
4. 80
5. 30
